# EC50 per entry
Molecular target: human CB2 receptors (Homo sapiens (Human))
Test: cAMP assay, CHO cells expressing human CB2 receptors
Type: cell-based
Conditions: CHO cells expressing human CB2, cAMP; read-out: human CB2 EC50
Protocol: CHO cells expressing human CB1 or CB2 receptors are seeded 17-24 hours prior to the experiment 50.000 cells per well in a black 96 well plate with flat clear bottom (Corning Costar #3904) in DMEM (Invitrogen No. 31331), 1×HT supplement, with 10% fetal calf serum and incubated at 5% CO2 and 37° C. in a humidified incubator. […] The time-resolved energy transfer is measured by a TRF reader (Evotec Technologies GmbH), equipped with a ND:YAG laser as excitation source. […]
The figure you give is taken to be in nM; do not add the unit.

Field: example entries. Status: answers known.
CC(C)C[C@@H](CO)NC(=O)c1ccc(C2CC2)c(OCC(F)(F)F)n1 [Example 303]    38
CCC(CC)(CO)NC(=O)c1cccc(-c2cccc(Cl)c2)n1 [Example 29]    324
CC(C)(NC(=O)c1ccc(C2CC2)c(OCC2CC2)n1)c1ncon1 [Example 73]    40.7
CC1(COc2nc(C(=O)NC3(c4nccs4)COC3)ccc2Br)COC1 [Example 281]    447
NC(=O)[C@@H](NC(=O)c1ccc(C2CC2)c(OCC(F)(F)F)n1)c1ccccc1 [Example 301]    130

Given the compound CC(C)CC(C#N)NC(=O)c1ccc(N2CC(F)(F)C2)c(OCC2CC2)n1 (centres unmarked) [Example 271] and test system human CB2 receptors (Homo sapiens (Human)), the measured EC50 is 7.9

Given the compound CCC(CC)(NC(=O)c1ccc(C(F)(F)F)c(OCC2CC2)n1)C(=O)O [Example 252] and test system human CB2 receptors (Homo sapiens (Human)), the measured EC50 is 552

====

target: human CB2 receptors (Homo sapiens (Human)); assay: cAMP assay, CHO cells expressing human CB2 receptors; assay type: cell-based; details: CHO cells expressing human CB2, cAMP; read-out: human CB2 EC50
recorded endpoint: EC50 (nM)
The figure you give is taken to be in nM; do not add the unit.

Field: example entries. Status: answers known.
CN(C)C(=O)C(NC(=O)c1ccc(N2CC(F)(F)C2)c(OCC2CC2)n1)c1ccccc1 (stereo not shown)    61.3
Cc1ccc(C(=O)NC(C)(C)c2nccs2)nc1OCC1CC1    11.5
CNC(=O)[C@H](CC(C)(C)C)NC(=O)c1ccc(C(F)(F)F)c(OCC2CCOCC2)n1    29.4

Query compound follows.
The compound listed as `CC(C)C[C@H](NC(=O)c1ccc(C2CC2)c(Cc2ccc(F)cc2)n1)C(N)=O` has a reported EC50 of 0.7

====

Target: human CB2 receptors (Homo sapiens (Human))
Assay: cAMP assay, CHO cells expressing human CB2 receptors
Format: cell-based
Details: CHO cells expressing human CB2, cAMP; read-out: human CB2 EC50
Protocol: CHO cells expressing human CB1 or CB2 receptors are seeded 17-24 hours prior to the experiment 50.000 cells per well in a black 96 well plate with flat clear bottom (Corning Costar #3904) in DMEM (Invitrogen No. 31331), 1×HT supplement, with 10% fetal calf serum and incubated at 5% CO2 and 37° C. in a humidified incubator. […] The time-resolved energy transfer is measured by a TRF reader (Evotec Technologies GmbH), equipped with a ND:YAG laser as excitation source. […]
recorded endpoint: EC50 (nM)
The figure you give is taken to be in nM; do not add the unit.

Field: example entries. Status: answers known.
O=C(NN1CCCCC1)c1cccc(C2CCCCC2)n1 [Example 24]    15.6
Cc1nc([C@](C)(NC(=O)c2ccc(C3CC3)c(S(=O)(=O)CC(C)C)n2)C2CC2)no1 [Example 381]    11.4
CC(C)(C)NC(=O)c1ccc(N2CC(F)(F)C2)c(OCC2CC2)n1 [Example 359]    6.9
COCCOc1nc(C(=O)N[C@@H](CC(C)C)C(N)=O)ccc1C1CC1 [Example 142]    14.4
CCC(CC)(NC(=O)c1ccc(C2CC2)c(OCC2CCCO2)n1)C(=O)NC (centres unmarked) [Example 250]    9.5
CNC(=O)[C@H](CC(C)(C)C)NC(=O)c1ccc(C2CC2)c(OCC2CCCO2)n1 (some centres unmarked) [Example 185]    7.5
CCC(CC)(NC(=O)c1ccc(C(F)(F)F)c(OCC2CCOCC2)n1)C(=O)NC [Example 253]    14.3
CCC(CC)(NC(=O)c1ccc(N2CC(F)(F)C2)c(OCC2CC2)n1)C(=O)O [Example 207]    14.4

The compound listed as CN(C)C(=O)[C@H](CC1CC1)NC(=O)c1ccc(C2CC2)c(OCC2CC2)n1 [Example 222] has a reported EC50 of 3.2

The compound listed as Cc1nc(C(C)(C)NC(=O)c2ccc(C3CC3)c(OCC3CCCO3)n2)no1 (centres unmarked) [Example 166] has a reported EC50 of 30.5

The compound listed as COC(=O)C1CCCCC1NC(=O)c1cccc(C2CCCCC2)n1 (centres unmarked) [Example 92] has a reported EC50 of 320

====

target: human CB2 receptors (Homo sapiens (Human)); experiment: cAMP assay, CHO cells expressing human CB2 receptors; format: cell-based; conditions: CHO cells expressing human CB2, cAMP; read-out: human CB2 EC50
recorded endpoint: EC50
Form field: result (number plus unit)

Field: example entries. Status: answers known.
CC(C)(NC(=O)c1cccc(-c2cccc(Cl)c2)n1)c1nccs1 [Example 12]    105 nM
CCC(CC)(NC(=O)c1ccc(C(F)(F)F)c(OCC2CC2)n1)C(=O)OC [Example 249]    2.2 nM

Query compound follows.
The compound listed as Cc1ccc(C(=O)NC(C)(C)c2ncco2)nc1-c1cccc(Cl)c1 [Example 49] has a reported EC50 of 308 nM

====

# EC50 per entry
biological target: human CB2 receptors (Homo sapiens (Human), UniProt P34972); assay: cAMP assay, CHO cells expressing human CB2 receptors; format: cell-based; conditions: CHO cells expressing human CB2, cAMP; read-out: human CB2 EC50
Sequence (P34972 whole entry): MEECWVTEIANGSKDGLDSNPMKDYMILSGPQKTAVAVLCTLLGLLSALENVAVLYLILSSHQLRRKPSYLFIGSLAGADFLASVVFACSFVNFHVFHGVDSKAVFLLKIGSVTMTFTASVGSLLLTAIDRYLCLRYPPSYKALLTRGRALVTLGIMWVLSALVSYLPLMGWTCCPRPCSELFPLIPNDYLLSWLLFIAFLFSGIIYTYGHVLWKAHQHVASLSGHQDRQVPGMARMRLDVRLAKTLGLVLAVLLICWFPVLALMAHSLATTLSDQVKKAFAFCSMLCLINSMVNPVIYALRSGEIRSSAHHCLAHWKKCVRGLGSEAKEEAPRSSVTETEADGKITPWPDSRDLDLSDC
The figure you give is taken to be in nM; do not add the unit.

COC(=O)C(C)(C)NC(=O)c1ccc(C)c(Nc2ccc(Cl)cc2Cl)n1    376
CC(C)CC(NC(=O)c1ccc(N2CC(F)(F)C2)c(OCC2CC2)n1)c1cccnc1 (stereo not drawn)    17.5
CC(C)CSc1nc(C(=O)N[C@@H](CC(C)C)C(N)=O)ccc1C1CC1    11
Cc1nc([C@H](CC2CC2)NC(=O)c2cccc(-c3ccc(F)c(Cl)c3)n2)no1    3.5
CC(C)(C)NC(=O)c1ccc(C2CC2)c(OCC2CCCO2)n1 (stereo not drawn)    12
CC(C)(C)NC(=O)c1ccc(C2CC2)c(OCC2CC2)n1    26.3
CNC(=O)[C@@H](NC(=O)c1cccc(-c2cccc(F)c2)n1)C(C)(C)C    12.8
O=C(NNC1CCS(=O)(=O)C1)c1ccc(N2CC(F)(F)C2)c(OCC2CC2)n1 (stereo not drawn)    790

Query compound follows.
Given the compound CC1(COc2nc(C(=O)NC(c3ccccn3)C(F)(F)F)ccc2Br)COC1 (stereo not drawn) and test system human CB2 receptors (Homo sapiens (Human), UniProt P34972), the measured EC50 is 109

====

molecular target: human CB2 receptors (Homo sapiens (Human)); experiment: cAMP assay, CHO cells expressing human CB2 receptors; type: cell-based; settings: CHO cells expressing human CB2, cAMP; read-out: human CB2 EC50
# EC50 per entry
The figure you give is taken to be in nM; do not add the unit.

Cc1nc(C(NC(=O)c2ccc(C3CC3)c(OCC3CC3)n2)C2CC2)no1 (centres unmarked) [Example 190]    20.4
O=C(NC1CCOCC1)c1cccc(-c2cccc(Cl)c2)n1 [Example 21]    220
Cc1nc([C@H](CC2CC2)NC(=O)c2cccc(-c3cccc(Cl)c3)n2)no1 [Example 38]    99.7

Given the compound NC(=O)[C@H](CC1CC1)NC(=O)c1ccc(C2CCOC2)c(OCC2CC2)n1 (some centres unmarked) [Example 136] and test system human CB2 receptors (Homo sapiens (Human)), the measured EC50 is 65.4

Given the compound CC(C)C[C@H](NC(=O)c1ccc(NC2CC2)c(OCC2CC2)n1)C(N)=O [Example 134] and test system human CB2 receptors (Homo sapiens (Human)), the measured EC50 is 5.1

Given the compound O=C(N[C@@H](c1ccccn1)C(F)(F)F)c1ccc(C2CC2)c(Cc2ccc(F)cc2)n1 [Example 332] and test system human CB2 receptors (Homo sapiens (Human)), the measured EC50 is 4.5

====

target: human CB2 receptors (Homo sapiens (Human)); assay: cAMP assay, CHO cells expressing human CB2 receptors; type: cell-based; details: CHO cells expressing human CB2, cAMP; read-out: human CB2 EC50
# log10 EC50 per entry
In our notation, the value equals log10 of EC50 in nM.

Field: example entries. Status: answers known.
CC(C)C[C@H](NC(=O)c1ccc(C2CC2)c(OCC2CC2)n1)C(=O)OC(C)(C)C    1.42
CNC(=O)[C@H](CC(C)(C)C)NC(=O)c1ccc(N2CCC23COC3)c(OCC2CC2)n1    0.92
CCC(CC)(NC(=O)c1ccc(C2CC2)c(OCC2CC2)n1)C(=O)N1CC(F)(F)C1    0.56

The molecule listed as `CC(C)(NC(=O)c1ccc(C(F)(F)F)c(OCC2CC2)n1)c1ncco1` has a reported log10 EC50 of 2.26

The molecule listed as `NC(=O)[C@@H](NC(=O)c1ccc(N2CC(F)(F)C2)c(OCC2CC2)n1)C1CC1` has a reported log10 EC50 of 1.77

The molecule listed as CC(C)C[C@H](NC(=O)c1cccc(C(O)c2ccc(F)cc2)n1)C(N)=O (stereo partly shown) has a reported log10 EC50 of 1.38

The molecule listed as `CCC(CC)(NC(=O)c1ccc(N2CC(F)(F)C2=O)c(OCC2CC2)n1)C(=O)OC` has a reported log10 EC50 of 1.67

The molecule listed as `CC(C)C[C@H](NC(=O)c1cccc(-c2cccc(Cl)c2)n1)c1nccs1` has a reported log10 EC50 of 2.24

The molecule listed as `CCC(CC)(NC(=O)c1ccc(N(CC(F)(F)F)CC(F)(F)F)c(OCC2CC2)n1)C(=O)NC` has a reported log10 EC50 of 0.86

The molecule listed as `CCC(CC)(NC(=O)c1ccc(C(F)(F)F)c(OCC2CCOCC2)n1)C(=O)N(C)C` has a reported log10 EC50 of 1.87

The molecule listed as `O=C(Nc1ccccn1)c1cccc(-c2cccc(Cl)c2)n1` has a reported log10 EC50 of 2.42

The molecule listed as `Cc1nc([C@@](C)(CC2CC2)NC(=O)c2ccc(C3CC3)c(OCC3CC3)n2)no1` has a reported log10 EC50 of 0.69

The molecule listed as `CC(C)(NC(=O)c1ccc(C2CC2)c(OCC2CC2)n1)c1nc(N)no1` has a reported log10 EC50 of 2.25

The molecule listed as `CNC(=O)C(C)(C)NC(=O)c1ccc(C2CCCC2)c(OCC2CC2)n1` has a reported log10 EC50 of 1.49

The molecule listed as `O=C(N[C@@H](CC1CC1)c1nccs1)c1ccc(C2CC2)c(OCC2CC2)n1` has a reported log10 EC50 of 1.78

The molecule listed as `CNC(=O)[C@@H](NC(=O)c1ccc(C2CC2)c(OCC2CC2)n1)C(C)(C)C` has a reported log10 EC50 of -0.22

The molecule listed as `Cc1nc([C@H](CC2CC2)NC(=O)c2ccc(C)c(OCC3CC3)n2)no1` has a reported log10 EC50 of 2.50

The molecule listed as `O=C(N[C@@H](CC1CC1)c1nccs1)c1cccc(-c2cccc(Cl)c2)n1` has a reported log10 EC50 of 1.79

All figures here come from patent US9290451B2.
